Biological target: Muscarinic acetylcholine receptor M2 (Homo sapiens) (UniProt P08172)
Sequence (P08172 whole entry, looked up): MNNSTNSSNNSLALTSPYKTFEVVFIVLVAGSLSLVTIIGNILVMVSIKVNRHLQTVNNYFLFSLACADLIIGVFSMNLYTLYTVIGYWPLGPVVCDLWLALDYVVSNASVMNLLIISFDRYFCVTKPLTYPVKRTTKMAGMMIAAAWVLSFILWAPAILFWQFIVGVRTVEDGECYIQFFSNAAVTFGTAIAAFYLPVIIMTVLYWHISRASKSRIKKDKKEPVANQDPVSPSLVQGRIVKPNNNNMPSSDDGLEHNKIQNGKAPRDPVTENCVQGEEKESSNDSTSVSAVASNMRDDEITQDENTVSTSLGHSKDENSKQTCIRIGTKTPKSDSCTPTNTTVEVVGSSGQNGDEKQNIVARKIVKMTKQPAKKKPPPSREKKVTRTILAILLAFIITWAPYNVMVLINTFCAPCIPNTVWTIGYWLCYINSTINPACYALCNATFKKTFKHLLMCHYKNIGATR
Assay: NVS_GPCR_hM2: NovaScreen (NVS) G Protein-Coupled Receptor Assay for human Muscarinic, M2 Receptor (AID 2283273)
Records with an inconclusive call do not appear. Calls of active or inactive are those of the source. How the source made its calls: active means hit-call score of the fitted dose curve at least 0.9, where 1 is the maximum; inconclusive means response in the unintended direction; inactive means score below 0.9.
Outcomes: YES for active, NO for inactive

# Compound, Label
data = [
    ("COc1cccc(-c2ccc(/C=C\\CN3CCCCCC3)cc2Cl)c1", "YES"),
    ("CCOC(=O)c1ccc(C2CCC(NC[C@H](O)COc3ccc(O)c(NS(C)(=O)=O)c3)CC2)cc1 (stereo not given in full)", "YES"),
    ("Nc1ccc(Nc2ccccc2)cc1", "YES"),
    ("O=C(O)CC(O)C(=O)O (stereo not given)", "NO"),
    ("CNS(=O)(=O)c1cc(C(=O)N2CCC(CCN3C4CCC3CC(n3c(C)nc5ccccc53)C4)(c3cccc(F)c3)CC2)c(Cl)cc1F (stereo not given)", "YES"),
]

----------
Read-out: urokinase plasminogen activator (uPA), PLAU (gene 5328)
Experiment: BSK_BE3C_uPA: BioMAP Diversity Plus: BE3C Assay for urokinase plasminogen activator (uPA) Biomarker Activity (AID 2283038)
Conditions: primary human bronchial epithelial cells; actives raise or lower the signal
Calls of active or inactive are those of the source. Rule for the calls: active = hit-call score of the fitted dose curve at least 0.9, where 1 is the maximum; inactive = score below 0.9.
Outcomes: y (active), n (inactive)

# Compound, Label
data = [
    ("CN(C)c1ccc(Cc2ccc(N(C)C)cc2)cc1", "n"),
    ("CCOc1cccc(-n2cc(C(=O)N3CCN(c4cc(C(=O)O)c5ccccc5c4)CC3)nc2-c2ccc(C)cc2)c1", "y"),
    ("CC(C)CC(C)(O)C#CC(C)(O)CC(C)C (stereo unspecified)", "n"),
    ("CC1(C)C(=O)N(Br)C(=O)N1Br", "n"),
    ("O=c1[nH]c2ccc(S(=O)CCN3CCC(Cc4ccc(F)cc4)CC3)cc2o1 (stereo unspecified)", "n"),
    ("Cc1ccc(O)cc1", "n"),
]

----------
Molecular target: Glucocorticoid receptor (Homo sapiens)
Test: ATG_GR_TRANS: Attagene TRANS-FACTORIAL HepG2 Assay for human Glucocorticoid Receptor (GR) (AID 2282978);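 further: activators score as hits since higher reporter transcript over DMSO is fitted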
Details: HepG2 Attagene TRANS GR reporter, mRNA transcription
Results filed as inconclusive are left out. Calls of active or inactive are those of the source. Rule for the calls: active = hit-call score of the fitted dose curve at least 0.9, where 1 is the maximum; inconclusive = response in the unintended direction; inactive = score below 0.9.
Outcomes: YES = active, NO = inactive

# Compound, Label
measured = [
    ("CC(O)CN(CCN(CC(C)O)CC(C)O)CC(C)O (stereo not given)", "NO"),
    ("O=C(CCCCCCCCc1cccnc1)N1CCC(C=C(c2ccccc2)c2ccccc2)CC1", "YES"),
    ("Nc1nc2ncc(CNc3ccc(C(=O)N[C@@H](CCC(=O)O)C(=O)O)cc3)nc2c(=O)[nH]1", "NO"),
    ("CCC(C)(C)C(=O)O[C@H]1C[C@@H](C)C=C2C=C[C@H](C)[C@H](CC[C@@H]3C[C@@H](O)CC(=O)O3)[C@H]21", "NO"),
    ("CCCCC(CC)COC(=O)CCCCCCCCC(=O)OCC(CC)CCCC (stereo not given)", "NO"),
]

----------
Read-out: Tumor necrosis factor (Homo sapiens)
Assay: BSK_LPS_TNFa: BioMAP Diversity Plus: LPS Assay for Tumour Necrosis Factor alpha (TNFa) Biomarker Activity (AID 2283085)
Conditions: primary human HUVEC with PBMC; actives raise or lower the signal
Activity calls are given as the source filed them. The calls were made as follows: active = hit-call score of the fitted dose curve at least 0.9, where 1 is the maximum; inactive = score below 0.9.
Outcomes: yes = active, no = inactive

# Cpd smiles, Label
rows = [
    ("CCOCCO", "no"),
    ("COc1ccc(/C=C/S(=O)(=O)NC(=O)c2ccc(C)cc2Cl)cc1", "no"),
    ("C=CCCCCCCCCC(=O)O", "yes"),
    ("CCCN(C1CCN(C(=O)C2CCNCC2)CC1)[C@@H]1CCc2ccc(OC)cc2C1", "no"),
    ("CCCCCCCCCCCCCCCO", "yes"),
    ("CCN(C(=O)c1cc(C)cc(OC[C@H](C)Nc2ccncc2)c1)C(C)C", "no"),
    ("Cc1c(-c2cccnc2)c2ccccc2n1CCCCC(=O)O", "no"),
    ("Cc1[nH]cnc1C[C@H]1CCc2c(C)c3ccccc3n2C1=O", "yes"),
    ("CCOC(=O)CC(CC(=O)OCC)(OC(C)=O)C(=O)OCC", "no"),
    ("O=C(O)c1cc(N=Nc2ccc(S(=O)(=O)Nc3ccccn3)cc2)ccc1O", "no"),
    ("CNCc1ccc(NC(=O)c2c[nH]c3c2C(=O)CCC3)cc1", "no"),
    ("Oc1ccc2c(c1)-c1ccccc1C2", "yes"),
]

----------
Read-out: Paternally Expressed 10 (PEG10), PEG10 (gene 23089)
Test: LTEA_HepaRG_PEG10: Life Technologies and Expression Analysis (LTEA) Assay for Paternally Expressed 10 (PEG10) using HepaRG (AID 2283520)
Details: mRNA level, 48 h; actives raise or lower the signal
Activity calls are given as the source filed them. The calls were made as follows: active = hit-call score of the fitted dose curve at least 0.9, where 1 is the maximum; inactive = score below 0.9.
Outcomes: YES (active), NO (inactive)

# Molecule, Label
measured = [
    ("O=C(O)CC(O)C(=O)O (stereo not given)", "NO"),
    ("C=CC(=C)CCC=C(C)C", "NO"),
    ("O=P(OC(CCl)CCl)(OC(CCl)CCl)OC(CCl)CCl", "YES"),
    ("Clc1nc(Cl)c(Cl)c(Cl)c1Cl", "NO"),
    ("COCCOc1cc2cc(C(=O)NC3CCN(C(C)C)CC3)n(CC(=O)Nc3ccc(Cl)cn3)c2cn1", "YES"),
    ("Cc1c(-c2cccnc2)c2ccccc2n1CCCCC(=O)O", "NO"),
    ("Cn1c(=O)c2c(ncn2C)n(C)c1=O", "NO"),
    ("CC(C)CCO", "NO"),
    ("CC(=O)OCCC(C)C", "NO"),
    ("CCCCC(CC)COC(=O)c1ccc(C(=O)OCC(CC)CCCC)cc1 (stereo not given)", "NO"),
    ("C[C@](N)(Cc1ccc(O)c(O)c1)C(=O)O", "NO"),
    ("O=C(O)c1cccc(Oc2ccccc2)c1", "NO"),
    ("O=c1n(CC2CO2)c(=O)n(CC2CO2)c(=O)n1CC1CO1 (stereo not given)", "NO"),
    ("CCOCCOCCOCCO", "NO"),
    ("CNS(=O)(=O)c1cc(C(=O)N2CCC(CCN3C4CCC3CC(n3c(C)nc5ccccc53)C4)(c3cccc(F)c3)CC2)c(Cl)cc1F (stereo not given)", "YES"),
    ("Cn1cnc([N+](=O)[O-])c1Sc1ncnc2nc[nH]c12", "YES"),
    ("COC(=O)c1ccccc1O", "NO"),
    ("CC[C@H]1CC[C@H](NCc2cc3c(cc2OC)[C@H]2C[C@H]2C(=O)N3C)[C@H](c2ccccc2)N1", "NO"),
    ("CCOc1cccc(-n2cc(C(=O)N3CCN(c4cc(C(=O)O)c5ccccc5c4)CC3)nc2-c2ccc(C)cc2)c1", "YES"),
    ("CCCCCCCCO", "NO"),
]

----------
Test: APR_HepG2_CellCycleArrest_72hr: Apredica 72-hour HepG2 Assay for Cell Cycle Arrest (AID 2282914)
Conditions: high-content imaging, actives raise or lower the signal
Active and inactive are the calls of the source. How the source made its calls: active means hit-call score of the fitted dose curve at least 0.9, where 1 is the maximum; inactive means score below 0.9.
Outcomes: active, inactive

# Compound, Label
records = [
    ("Cc1ccc(S(=O)(=O)O)cc1C", "inactive"),
    ("CCOC(=O)c1ccc(C2CCC(NC[C@H](O)COc3ccc(O)c(NS(C)(=O)=O)c3)CC2)cc1 (some centres undefined)", "inactive"),
    ("CC/C(=C\\C(=N/O)C(N)=O)C(C)[N+](=O)[O-] (centres undefined)", "inactive"),
    ("O=C(OC[C@H]1O[C@@H](OC(=O)c2cc(O)c(O)c(OC(=O)c3cc(O)c(O)c(O)c3)c2)[C@H](OC(=O)c2cc(O)c(O)c(OC(=O)c3cc(O)c(O)c(O)c3)c2)[C@@H](OC(=O)c2cc(O)c(O)c(OC(=O)c3cc(O)c(O)c(O)c3)c2)[C@@H]1OC(=O)c1cc(O)c(O)c(OC(=O)c2cc(O)c(O)c(O)c2)c1)c1cc(O)c(O)c(OC(=O)c2cc(O)c(O)c(O)c2)c1", "inactive"),
    ("CCCC(=O)OCC", "inactive"),
    ("Cn1c(=O)cc(Oc2ccc(F)cc2F)c2cnc(NCC(C)(C)O)nc21", "active"),
    ("CCOCCO", "inactive"),
    ("CCOC(=O)COc1ccc2c(c1)CC(NCC(O)c1cccc(Cl)c1)CC2 (centres undefined)", "inactive"),
    ("CC(C)=CCCC(C)=CC=O", "inactive"),
]

----------
Molecular target: D(1A) dopamine receptor (Homo sapiens) (UniProt P21728)
Sequence (P21728 whole entry, looked up): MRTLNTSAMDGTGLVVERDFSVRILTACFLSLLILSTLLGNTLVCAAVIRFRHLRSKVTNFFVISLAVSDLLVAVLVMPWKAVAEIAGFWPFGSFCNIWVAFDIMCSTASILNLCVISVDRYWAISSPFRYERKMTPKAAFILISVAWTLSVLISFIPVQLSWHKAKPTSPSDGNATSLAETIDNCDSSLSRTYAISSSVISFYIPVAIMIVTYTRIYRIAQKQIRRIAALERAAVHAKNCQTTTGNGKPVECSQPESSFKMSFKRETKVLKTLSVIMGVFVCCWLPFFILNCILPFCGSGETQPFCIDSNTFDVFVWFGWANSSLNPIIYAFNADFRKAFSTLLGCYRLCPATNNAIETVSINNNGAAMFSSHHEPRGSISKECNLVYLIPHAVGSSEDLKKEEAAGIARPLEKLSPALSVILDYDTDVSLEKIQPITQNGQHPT
Experiment: NVS_GPCR_hDRD1: NovaScreen (NVS) G Protein-Coupled Receptor Assay for human Dopamine Receptor D1 (DRD1) (AID 2283269)
Results filed as inconclusive are left out. Calls of active or inactive are those of the source. How the source made its calls: active means hit-call score of the fitted dose curve at least 0.9, where 1 is the maximum; inconclusive means response in the unintended direction; inactive means score below 0.9.
The entries below are paired with their reported AC50.
Measure name: AC50

# Compound, Assayed target, Measure name, Endpoint result
rows = [
    ("CCOC(=O)c1ccc(C2CCC(NC[C@H](O)COc3ccc(O)c(NS(C)(=O)=O)c3)CC2)cc1 (stereo not given in full)", "D(1A) dopamine receptor (Homo sapiens) (UniProt P21728)", "AC50", "21.9 µM (active)"),
    ("O=c1[nH]c2ccc(S(=O)CCN3CCC(Cc4ccc(F)cc4)CC3)cc2o1 (stereo not given)", "D(1A) dopamine receptor (Homo sapiens) (UniProt P21728)", "AC50", "1.23 µM (active)"),
    ("COc1cccc(-c2ccc(/C=C\\CN3CCCCCC3)cc2Cl)c1", "D(1A) dopamine receptor (Homo sapiens) (UniProt P21728)", "AC50", "12.6 µM (active)"),
    ("CCOC(=O)COc1ccc2c(c1)CC(NCC(O)c1cccc(Cl)c1)CC2 (stereo not given)", "D(1A) dopamine receptor (Homo sapiens) (UniProt P21728)", "AC50", "22.9 µM (active)"),
    ("Nc1ccc(Nc2ccccc2)cc1", "D(1A) dopamine receptor (Homo sapiens) (UniProt P21728)", "AC50", "17.6 µM (active)"),
]
